Tested on: OVCAR-8 ovarian
protocolNotes: NCI-60 one-dose screen, 48 h (100 = growth as untreated, 0 = no growth, -100 = all killed)
condition: 10 µM unless noted
This is part of a sample that, as a whole, favours compounds with a hit. Of some 83,000 tested, about 20% had one in any assay.
Under this convention, Met denotes growth strictly below 10% and Not met denotes growth at or above 10%.

Please review the following examples before continuing.
{"compound": "CCCCC[C@@H]1C/C=C(\\C)[C@@H](O)C(C)(C)C(=O)[C@@H](C)/C=C(\\C)[C@@H]2C[C@H](O)C[C@](O)(CC(=O)O1)O2", "answerLabel": "Not met"}
{"compound": "COc1ccc(N=Nc2c(N)nn3c(-c4cc5cc(Br)ccc5oc4=O)ccnc23)cc1", "answerLabel": "Not met"}
{"compound": "COc1cccc(/C=C/c2nc3ccccc3c(=O)n2CC(=O)Nc2ccccc2)c1", "answerLabel": "Not met"}
{"compound": "N#Cc1ccc(C(=O)CSc2nc3c(c(Nc4ccc(S(N)(=O)=O)cc4)n2)CCC3)cc1", "answerLabel": "Met"}
{"compound": "COc1ccc(-c2cc(-c3cc(OC)c(OC)c(OC)c3)[nH]c(=O)c2C#N)cc1", "answerLabel": "Not met"}
{"compound": "CC(C)(C)c1cc(-c2cc(-c3ccccc3)[nH]c(=O)c2C#N)cc(C(C)(C)C)c1", "answerLabel": "Met"}

QUERY: Hello, I'm reviewing records and need to know if growth of "Cc1cccc(C)c1Nc1nnc(-c2c[nH]c3ccccc23)o1" is below 10%. Could you check?
RESULT: Not met

###

Test system: KM12 colon
protocolNotes: NCI-60 one-dose screen, 48 h
condition: 10 µM unless noted
About 83,000 compounds went through this panel and 20% of them were active in at least one assay; those are over-represented in the sample as a whole. Active and inactive are the calls of the source. The calls were made as follows: active = growth percent below 10; inactive = the rest.
I would appreciate it if you answered using one of these outcomes: active, inactive

Study these solved cases before continuing.
{"molecule": "Cn1cc(-c2cc3nc(-c4cn(C)c5ncc(Br)cc45)cc(N)n3n2)c2cc(F)ccc21", "answerLabel": "inactive"}
{"molecule": "Cn1cc(-c2cc3nc(-c4c[nH]c5ccccc45)cc(N)n3n2)c2ccccc21", "answerLabel": "active"}
{"molecule": "C=CC[n+]1cccc2c3ccccc3ccc21", "answerLabel": "inactive"}
{"molecule": "Cc1ccc(C(C(=O)NC2CCCCC2)N(Cc2ccccc2Cl)C(=O)c2ccc(CN3CCOCC3)o2)o1 (centres undefined)", "answerLabel": "inactive"}
{"molecule": "Clc1ccc(-c2nc3c4c(-c5ccccc5)c(-c5ccccc5)n(Cc5ccccc5)c4ncn3n2)cc1", "answerLabel": "active"}

QUERY: Record lookup: outcome of this test for "Cn1cc(-c2cc(N)n3nc(-c4c[nH]c5ccc(F)cc45)cc3n2)c2cccnc21" ?
RESULT: active

QUERY: Hi, sorry to bother you, what did the test record for "CCCCCCCCCc1ccc(C(=O)Nc2cc(C)ccc2C(=O)OC)cc1" ?
RESULT: inactive

###

Tested on: RPMI-8226 leukemia
protocolNotes: NCI-60 one-dose screen, 48 h (100 = growth as untreated, 0 = no growth, -100 = all killed)
condition: 10 µM unless noted
Compounds without any hit were thinned out: in the full panel of roughly 83,000, 20% have a hit.
Criterion: growth meeting or surpassing 10%. Met: Y. Not met: N.

{"compound": "Fc1ccccc1CNc1nc(SCCN2CCOCC2)nc2c1cnn2CC(Cl)c1ccc(Br)cc1 (centres undefined)", "answerLabel": "N"}
{"compound": "N#C/C(=C/c1ccc([N+](=O)[O-])cc1)c1nnc(NC(=O)c2ccc(-n3c(=O)[nH]c4ccccc4c3=O)cc2)s1", "answerLabel": "Y"}
{"compound": "O=C(COc1ccc(/C=C2/C(=O)Nc3ccc(Cl)cc32)cc1)Nc1ccc(Br)cc1", "answerLabel": "Y"}
{"compound": "O=C(c1ccc(Cl)cc1)C1[C@H](c2ccccc2Cl)[C@@H](c2ccccc2)NC12C(=O)Nc1ccc(Br)cc12 (some centres undefined)", "answerLabel": "N"}
{"compound": "COc1ccc(NC(=O)CSc2nnc(-c3ccc(-c4nc5ccc(Cl)cc5[nH]4)cc3)o2)cc1", "answerLabel": "Y"}
{"compound": "N#Cc1cc(-c2ccnc(Nc3ccc(N4CCN(C5COC5)CC4)cc3)n2)ccc1N1CCCC1", "answerLabel": "Y"}
{"compound": "CC[C@]12C=CCN3CC[C@@]4(c5ccc(OC)cc5N(C)[C@H]4[C@@](O)(C(=O)OC)[C@@H]1OC(=O)CCC[P+](c1ccc(OC)cc1)(c1ccc(OC)cc1)c1ccc(OC)cc1)[C@@H]32", "answerLabel": "N"}
{"compound": "COc1cc(NC(=O)C(C)C)ccc1C(=O)NC(=S)Nc1ccc(S(N)(=O)=O)cc1", "answerLabel": "Y"}

QUERY: For this compound, is measured growth 10% or higher? "CC(=O)c1c2c(c3ccc4c5ccccc5ccc4n13)C(=O)c1ccccc1C2=O"
RESULT: Y

###

Measured growth accompanies every entry in the list below.
Test system: SF-268 CNS
protocolNotes: NCI-60 one-dose screen, 48 h (100 = growth as untreated, 0 = no growth, -100 = all killed)
condition: 10 µM unless noted
The panel holds about 83,000 compounds, 20% with a hit somewhere; the sample as a whole holds those more often.
Enter your answer as a number in %; do not include the unit.

{"compound": "C[C@@H]1CN(c2ccc3ncc(C#Cc4cncc(C(=O)Nc5ccc(CN6CCN(C)CC6)c(C(F)(F)F)c5)c4)n3n2)C[C@@H](C)O1", "growth [%]": -56.2}
{"compound": "COc1ccc(C(=O)c2c(N)c(C#N)cn2-c2ccc([N+](=O)[O-])cc2)cc1", "growth [%]": 99.6}
{"compound": "Cc1ccc(C(=O)Nc2ccc(-n3ccnc3)c(C(F)(F)F)c2)cc1C#Cc1cnc2cccnn12", "growth [%]": 45.4}

Entry under test: "Cn1cc(-c2cc(N)n3nc(-c4c[nH]c5ccc(Cl)cc45)cc3n2)c2cccnc21" . Its growth was -47.4

So for "NS(=O)(=O)c1cccc(Nc2nc(SCC(=O)c3ccc(F)cc3)nc3ccccc23)c1" , the logged growth turned out to be 8.21

Noted for "CN(C)CCCNC(=S)Nc1ccc(/C=C/c2ccc(Cl)cc2)cc1" : its growth reads 0.261

Measured growth of "O=C(NNC(=O)c1ccc(OCc2nc3ccc(Cl)cc3[nH]2)cc1)Nc1ccc(Cl)c(C(F)(F)F)c1" : 78.2

Item: "COc1ccc(/C=C/C(=O)c2ccc(S(=O)(=O)NCCNc3nc(N(C)C)nc(N4CCOCC4)n3)cc2)cc1" | growth: 84.1

GET /value?item= "O=C1N/C(=N\c2nccs2)S/C1=C\c1ccc([N+](=O)[O-])cc1" &field=growth returns 19.9

Looking up "Cc1ccccc1Nc1nnc(-c2c[nH]c3ccccc23)o1" , I see its growth listed as 59

Reported growth ( "COc1ccc(N=Nc2c(N)nn3c(-c4cc5ccccc5oc4=O)ccnc23)cc1" ) = 57.8

###

Test system: SN12C renal
protocolNotes: NCI-60 one-dose screen, 48 h
condition: 10 µM unless noted
Experimental: Growth inhibition of the SN12C human tumor cell line is measured as a screen for anti-cancer activity. Cells are grown in 96 well plates and exposed to the test compound for 48 hours. Compounds are tested at a single concentration, which is 10^-5 M for most compounds. The reported endpoint is percent growth (GI% or GIPRCNT), where numbers from 0 - 100% represent growth inhibition, and numbers from -100% - 0 represent cell death. For example, a value of 40 represents 60% growth inhibition. […]
Compounds without any hit were thinned out: in the full panel of roughly 83,000, 20% have a hit. The source made the active and inactive calls. The calls were made as follows: active = growth percent below 10; inactive = the rest.
The reply should be one of these categories: active, inactive

Example entries and their recorded answers appear below.
{"molecule": "CN(C)CCCc1ccc(Nc2cnn(C)c(=O)c2Cl)cc1", "answerLabel": "inactive"}
{"molecule": "Cc1cc(Cl)ccc1NC(=O)Nc1ccc(-c2ccc3c(c2)NC(=O)/C3=C\\c2ccc[nH]2)cc1", "answerLabel": "inactive"}
{"molecule": "Cc1ccc(C(=O)Nc2cc(-n3cnc(F)c3)cc(C(F)(F)F)c2)cc1C#Cc1cnc2cccnn12", "answerLabel": "inactive"}
{"molecule": "O=C1Nc2cc(-c3ccc(NS(=O)(=O)c4ccc(C(F)(F)F)cc4)cc3)ccc2/C1=C/c1ccc[nH]1", "answerLabel": "active"}
{"molecule": "O=C(N/N=C/c1ccsc1)c1[nH]c2ccc(Br)cc2c1-c1ccccc1", "answerLabel": "active"}

Below: the item to evaluate.
QUERY: What classification did "Cc1nn(-c2ccccc2)c2nc(C)n(C(=O)N/N=C/c3cccc([N+](=O)[O-])c3)c(=O)c12" end up with in this test?
RESULT: inactive

###

Test system: SW-620 colon
protocolNotes: NCI-60 one-dose screen, 48 h
condition: 10 µM unless noted
The panel holds about 83,000 compounds, 20% with a hit somewhere; the sample as a whole holds those more often. Calls of active or inactive are those of the source. The calls were made as follows: active = growth percent below 10; inactive = the rest.
Allowed answers: active, inactive

Below, 5 compounds whose answers are already recorded.
{"compound": "Clc1ccc(CNc2nc(SCCN3CCOCC3)nc3c2cnn3CC(Cl)c2ccc(Br)cc2)cc1 (stereo not given)", "answerLabel": "inactive"}
{"compound": "Cn1cc(-c2cc(N)n3nc(-c4c[nH]c5ccc(Cl)cc45)cc3n2)c2cccnc21", "answerLabel": "active"}
{"compound": "CCOC(=O)/C(F)=C/C1CC1C(c1ccccc1)c1ccccc1 (stereo not given)", "answerLabel": "inactive"}
{"compound": "O=c1[nH]c2ccccc2cc1CSc1ccccc1Nc1nccc(-c2ccc3c(c2)OCO3)n1", "answerLabel": "inactive"}
{"compound": "C[C@@H]1CN(c2ccc3ncc(C#Cc4cncc(C(=O)Nc5ccc(CN6CCN(C)CC6)c(C(F)(F)F)c5)c4)n3n2)C[C@@H](C)O1", "answerLabel": "active"}

Next:
QUERY: Field: outcome | Entry: "Nc1cc2ccccc2c(=O)n1NC(=O)c1ccccc1"
RESULT: inactive
